- PROTOCOL NOTES: Solubility measurement of RB and lipophilic derivatives of RB in PBS and 1-octanol
- Type: physicochemical
- CONDITION DESCRIPTION: 1-octanol, organic solvent or mixture, thermodynamic from solid; saturated solution at 25° C., organic solvent; read-out: solubility in 1-octanol
MEASUREMENT NAME: solubility

// Input: O=C([O-])c1c(Cl)c(Cl)c(Cl)c(Cl)c1-c1c2cc(I)c(=O)c(I)c-2oc2c(I)c([O-])c(I)cc12.[Na+].[Na+] [RB, rose bengal sodium salt] . Output its solubility only.
< 100 µM
